Each recorded value in this set is attributed to patent US20050148631A1.

- TEST TARGET: 11β-hsd-1 enzyme (Homo sapiens, UniProt P28845)
- Sequence (P28845 whole entry, species assumed): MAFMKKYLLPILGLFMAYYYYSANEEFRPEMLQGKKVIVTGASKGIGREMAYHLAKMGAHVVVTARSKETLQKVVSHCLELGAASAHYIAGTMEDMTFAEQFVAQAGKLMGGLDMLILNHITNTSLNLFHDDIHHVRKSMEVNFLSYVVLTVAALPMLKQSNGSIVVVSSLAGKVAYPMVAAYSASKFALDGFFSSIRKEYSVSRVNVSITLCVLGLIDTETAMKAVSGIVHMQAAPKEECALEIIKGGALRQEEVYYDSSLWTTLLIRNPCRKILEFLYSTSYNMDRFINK
- ASSAY METHOD TEXT: 11β-hsd-1 enzyme assay, Kiapp determination (3H-cortisone to cortisol, radio-HPLC)
- Assay type: biochemical
- MEASUREMENT CONTEXT: apparent Ki, 11β-hsd-1 enzyme; read-out: Ki app
EXPERIMENTAL ENDPOINT: pKi
The quantity pKi is defined as the negative base-10 logarithm of the molar concentration.

Solved entries (count: 5):
Cc1cccc(NS(=O)(=O)c2ccc(-c3ccc(CC(C)C)cc3)cc2C)n1 [Example 210] ... 7.33
Cc1cccc(NS(=O)(=O)c2ccc(-c3ccc(F)cc3)nc2)n1 [Example 268] ... 7.40
N#Cc1ccc(-c2ccc(S(=O)(=O)Nc3cccc(C4CC4)n3)cn2)cc1 [Example 293] ... 8.19
Cc1cccc(NS(=O)(=O)c2ccc(-c3ccc(C#N)cc3)nc2)n1 [Example 267] ... 7.65
O=S(=O)(Nc1ccc2ccccc2n1)N1CCc2conc2CC1 [Example 315] ... 7.60

Which pKi value is on record for Cc1cccc(NS(=O)(=O)N2CCC(Oc3ccccc3)CC2)n1 [Example 314] ?
7.28

Which pKi value is on record for N#Cc1ccc(-c2ccc(S(=O)(=O)Nc3ccc4ccccc4n3)cn2)cc1 [Example 290] ?
7.92

Which pKi value is on record for Cc1cccc(NS(=O)(=O)c2ccc(-c3ccc(C#N)cc3)cc2F)n1 [Example 283] ?
8.24

Which pKi value is on record for Cc1cccc(NS(=O)(=O)c2ccc(-c3ccc(N4CCOCC4)cc3)cc2)n1 [Example 251] ?
7.54

Which pKi value is on record for Cc1cc(-c2ccc(S(=O)(=O)Nc3ccc4ccccc4n3)cn2)ccc1F [Example 292] ?
7.31

Which pKi value is on record for O=S(=O)(Nc1cccc(C2CC2)n1)c1ccc(-c2ccc(C(F)(F)F)cc2)nc1 [Example 294] ?
8.14

Which pKi value is on record for CCOc1ccc(-c2ccc(S(=O)(=O)Nc3cccc(C)n3)cc2)c(C)c1 [Example 254] ?
7.65

Which pKi value is on record for Cc1cccc(NS(=O)(=O)c2ccc(-c3ccc(Cl)cc3)cc2)n1 [Example 249] ?
8.24

Which pKi value is on record for Cc1cccc(NS(=O)(=O)N2CCc3ccccc3C2)n1 [Example 300] ?
7.96

Which pKi value is on record for COc1ccc(-c2ccc(S(=O)(=O)Nc3cccc(C)n3)cc2C)cc1 [Example 216] ?
7.37

Which pKi value is on record for Cc1cccc(NS(=O)(=O)c2ccc(-c3ccc(F)cc3C)cc2C)n1 [Example 204] ?
8.00
